Give phosphorylation enrichment for every item shown.
System: c-Abl (mouse)
experiment_description: phosphorylation enrichment, bacterial display (enrichment ratio); higher = better substrate or ligand; peptides without Tyr show the background;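 note: 11-residue human phosphosite peptides and single-mutation variants displayed on the E. coli surface, counted by deep sequencing, each peptide's frequency after selection divided by its frequency in the unselected input library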;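 note: frequency after pTyr selection over input frequency; kinase dosed for 20-30% of maximal phosphorylation in three min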
Numbers only.

>>> numeric_result("KMGNIYRTEFG [MRPL3_Y265_YF]")
0.471
>>> numeric_result("VHSGTYQVTVR [MYBPC3_Y1043]")
0.442
>>> numeric_result("INASGYRVGPA [ACSM1_Y477_I479V]")
0.615

Look up phosphorylation enrichment for the entries below, preserving their order.
1. AVAFLYYKSIG [ADGRL4_Y301_V300L]
2. DPHECYAKVFD [ALB_Y394]

Resp:
[1.07, 0.692]

Look up phosphorylation enrichment for the entries below, preserving their order.
1. LTDLRYKVSGP
2. PELINYHQHYS [BTK_Y361_N365Y]
3. RPFVFYFSFLL [PTEN_Y177_R173P_YF]

Resp:
1. 0.684
2. 0.563
3. 1.29

Look up phosphorylation enrichment for the entries below, preserving their order.
1. WASSSYRETPS [SORBS1_Y79_R74W]
2. RRIHSYRGYLW [VHL_Y112_H115Y]
3. KRISCYEASFQ [PFKFB3_Y194_YF]
4. KGEDFYCVTCP [FHL1_Y149_H154P]
5. SMEMKYLEEKN [ZAP70_Y451_G448E]
6. HSSPVYVGRVV [TGM2_Y219_R214H]
7. TPSGNYVACGG [GNB1_Y111_A106T]
8. YPKVRYHWLVL [APTX_Y214_A212V]

Resp:
[0.391, 0.375, 0.88, 0.646, 1.17, 1.17, 0.677, 1.15]

Look up phosphorylation enrichment for the entries below, preserving their order.
1. ASQEEYSAMRD [KRAS_Y64_G60S]
2. LDPIQYSKHPP [SQSTM1_Y433_T430P]
3. RQNQEYEILLD [KRT39_Y379]

Resp:
0.681
0.448
1.04

---

Tested on: c-Src
experiment_description: phosphorylation enrichment, bacterial display (enrichment ratio); higher = better substrate or ligand; peptides without Tyr show the background
Give phosphorylation enrichment for every item shown.
Numbers only.

Please review the entries below; each comes with its answer.
>>> numeric_result("SMEMKYLEEKN [ZAP70_Y451_G448E]")
0.609
>>> numeric_result("ESVNTYLQTSP [NAT1_Y208_M205V]")
0.589

Let us examine a further case.
Req: Identify measured phosphorylation enrichment associated with ADNSAYLMGLN [MYH7_Y386_K383N]
Resp: 0.587

---

test_target: Fyn (UniProt P06241)
Sequence (P06241 whole entry, looked up): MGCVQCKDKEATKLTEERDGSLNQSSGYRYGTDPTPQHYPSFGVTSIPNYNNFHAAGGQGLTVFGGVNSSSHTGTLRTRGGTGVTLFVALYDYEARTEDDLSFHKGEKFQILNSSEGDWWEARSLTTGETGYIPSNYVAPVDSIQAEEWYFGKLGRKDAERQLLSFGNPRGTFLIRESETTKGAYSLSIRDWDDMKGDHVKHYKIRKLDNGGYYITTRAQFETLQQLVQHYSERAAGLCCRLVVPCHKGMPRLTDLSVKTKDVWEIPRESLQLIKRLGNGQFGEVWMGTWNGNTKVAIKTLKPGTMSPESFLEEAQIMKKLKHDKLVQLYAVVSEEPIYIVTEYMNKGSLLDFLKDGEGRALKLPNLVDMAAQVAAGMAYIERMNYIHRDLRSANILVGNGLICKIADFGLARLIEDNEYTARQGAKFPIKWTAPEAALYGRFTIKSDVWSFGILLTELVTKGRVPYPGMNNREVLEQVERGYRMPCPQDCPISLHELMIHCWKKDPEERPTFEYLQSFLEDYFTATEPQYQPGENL
experiment_description: phosphorylation enrichment, bacterial display (enrichment ratio); higher = better substrate or ligand; peptides without Tyr show the background
Label Yes for high-side phosphorylation enrichment (at or above 0.6) and No for low-side phosphorylation enrichment (below it).

Below, 5 sequences whose answers are already recorded.
>>> group_label("AEEEIYGEFEA [Src_opt_1995]")
"Yes"
>>> group_label("QLATEYVFSDF [PANX1_Y10]")
"Yes"
>>> group_label("HHTDECEFDEL [TGM1_Y134_Y134C_YF]")
"No"
>>> group_label("RDHYGYRQSVT [CD55_Y245]")
"Yes"
>>> group_label("SGFESYGSSSS [RPA2_Y9_Y14S]")
"No"

Req: Textbook exercise: given the entry MCDSHYLESRF [CLK1_Y56_S61F] , state whether its phosphorylation enrichment is greater than or equal to 0.6.
Resp: No

Entry source: the supplement of paper PMC10065799
